Tested on: hsa-mir-221 loop
protocolText: normalised indicator fluorescence (fraction of RNA + indicator signal without compound); higher = less displacement of indicator (weaker competition)
setupConditions: compound concentration: 5 uM; 30 min; indicator: TO-PRO-3 0.5 uM; RNA concentration: 0.5 uM
quantityKind: normalised indicator fluorescence
Give the value as a plain number.

- CC(C)c1cc(C(C)C)c(CC(=O)NS(=O)(=O)Oc2c(C(C)C)cccc2C(C)C)c(C(C)C)c1 [Avasimibe]: 1.03
- O=C1CCc2ccccc2C1 [Beta-Tetralone]: 1.06

Please look at the following compound next.
Memo: CC1=NN(c2ccccc2)C(=O)C1 [Edaravone] , reported normalised indicator fluorescence: 1.04

* * *

Test system: hsa-mir-221 loop
protocolText: normalised indicator fluorescence (fraction of RNA + indicator signal without compound); higher = less displacement of indicator (weaker competition)
setupConditions: compound concentration: 5 uM; 30 min; indicator: TO-PRO-3 0.5 uM; RNA concentration: 0.5 uM
Where a name gives a salt, the structure may show the parent alone.
quantityKind: normalised indicator fluorescence
Give the value as a plain number.

Known normalised indicator fluorescence results, listed for orientation:
• CO[C@@H]1[C@H](N(C)C(=O)c2ccccc2)C[C@H]2O[C@]1(C)n1c3ccccc3c3c4c(c5c6ccccc6n2c5c31)C(=O)NC4 = 0.972
• Cc1cc(NC(=O)c2cccc(NC(=O)/C=C/CN(C)C)c2)ccc1Nc1nccc(-c2cccnc2)n1 = 1.02
• O=C(Nc1ccc2[nH]nc(-c3ccncc3)c2c1)[C@@H]1CCN(CC(=O)N2CCN(c3ccc(-c4ncccn4)cc3)CC2)C1 = 1
• N=C(NCCCCCCNC(=N)NC(=N)Nc1ccc(Cl)cc1)NC(=N)Nc1ccc(Cl)cc1 = 0.994
• O=C(COc1ccc(Cl)cc1)NC1CCC(NC(=O)COc2ccc(Cl)cc2)CC1 (configuration not stated) = 1.01

Query CC(=O)CCCCn1c(=O)c2c(ncn2C)n(C)c1=O on hsa-mir-221 loop; normalised indicator fluorescence returned: 1.02

Query CN(C)CCCN1c2ccccc2CCc2ccc(Cl)cc21 [Clomipramine hydrochloride] on hsa-mir-221 loop; normalised indicator fluorescence returned: 1.01

* * *

Tested on: hsa-mir-6850 loop
protocolText: normalised indicator fluorescence (fraction of RNA + indicator signal without compound); higher = less displacement of indicator (weaker competition)
setupConditions: compound concentration: 5 uM; 30 min; indicator: TO-PRO-3 0.5 uM; RNA concentration: 0.5 uM
Counter-ions that a name gives are not always drawn.
quantityKind: normalised indicator fluorescence
Give the value as a plain number.

- Cc1cc(C(C)(C)C)c(O)c(C(C)(C)C)c1: 1.06

Query O=CN1CC/C(=C/c2ccc3c(c2)OCO3)C1=O on hsa-mir-6850 loop; normalised indicator fluorescence returned: 1.03

Query Cn1cc(C2=C(c3cn(CCCSC(=N)N)c4ccccc34)C(=O)NC2=O)c2ccccc21 [Ro 31-8220 Mesylate] on hsa-mir-6850 loop; normalised indicator fluorescence returned: 0.859

* * *

Test system: hsa-mir-6850 loop
protocolText: normalised indicator fluorescence (fraction of RNA + indicator signal without compound); higher = less displacement of indicator (weaker competition)
setupConditions: compound concentration: 5 uM; 30 min; indicator: TO-PRO-3 0.5 uM; RNA concentration: 0.5 uM
Where a name gives a salt, the structure may show the parent alone.
normalised indicator fluorescence values by entry
Give the value as a plain number.

Memo: COc1c(C)cnc(Cn2cnc3c(Cl)nc(N)nc32)c1C , reported normalised indicator fluorescence: 1.05

Memo: Fc1ccc(-c2nc3n(c2-c2ccncc2)CCS3)cc1 , reported normalised indicator fluorescence: 1.04

Memo: C1CCN2C[C@@H]3C[C@@H](CN4CCCC[C@@H]34)[C@H]2C1 [(-)-Sparteine sulfate pentahydrate] , reported normalised indicator fluorescence: 1.05

Memo: O=C(COc1ccc(Cl)cc1)NC1CCC(NC(=O)COc2ccc(Cl)cc2)CC1 (stereo not given) , reported normalised indicator fluorescence: 1.05

Memo: COC(=O)c1ccc([C@H]2c3[nH]c4ccccc4c3C[C@H](C(=O)OC)N2C(=O)CCl)cc1 , reported normalised indicator fluorescence: 1.03
